System: Klebsiella pneumoniae: Ciprofloxacin-resistant isolate, ESBL, clinical isolate (KP-3700)
ASSAY PROTOCOL: MIC determination (CLSI), KP-3700
Assay type: cell-based
EXPERIMENTAL READOUT: KP-3700 MIC (µg/mL)
API: value field is a number in µg/mL; no unit string.

Previously resolved entries follow.
[[record]]
compound = "Cc1ccc(-c2ccc(CCC(C)(C(=O)NO)S(C)(=O)=O)cc2)cc1C (stereo not shown)"
observed = 4

[[record]]
compound = "CC(CCc1ccc(-c2ccc(O)c(F)c2)cc1)(C(=O)NO)S(C)(=O)=O (stereo not shown)"
observed = 8


Query (compound): CC(CCc1ccc(-c2ccc(CC#N)cc2)cc1)(C(=O)NO)S(C)(=O)=O (stereo not shown) ; field requested: KP-3700 MIC
8

Same question for CC(CCc1ccc(OCc2ccc(C(F)(F)F)cc2)cc1)(C(=O)NO)S(C)(=O)=O (stereo not shown) please.
8

How about this compound: CC(CCc1ccc(-c2ccc(C#N)nc2)cc1)(C(=O)NO)S(C)(=O)=O (stereo not shown)
32

What do you have for CC(CCc1ccc(-c2ccc(C#N)cc2)cn1)(C(=O)NO)S(C)(=O)=O (stereo not shown) ?
32

Note, next up: COc1ccc(-c2ccc(CCC(C)(C(=O)NO)S(C)(=O)=O)cc2F)cn1 (stereo not shown)
8

Also CSc1cccc(-c2ccc(CCC(C)(C(=O)NO)S(C)(=O)=O)cc2)c1 (stereo not shown) ?
4

Now consider CC(CCc1ccc(-c2ccc(C#N)c(Cl)c2)cc1)(C(=O)NO)S(C)(=O)=O (stereo not shown) and answer again.
2

Same again, this time with Cc1cc(-c2ccc(CCC(C)(C(=O)NO)S(C)(=O)=O)cc2)ccc1CCO (stereo not shown)
16

And then Cc1nc(-c2ccc(CCC(C)(C(=O)NO)S(C)(=O)=O)cc2)ccc1C#N (stereo not shown) , what is it?
16

Then CC(C)(O)C(=O)c1ccc(-c2ccc(CC[C@](C)(C(=O)NO)S(C)(=O)=O)cc2)cc1 ?
4

Same for CSc1ccc(-c2ccc(CCC(C)(C(=O)NO)S(C)(=O)=O)cc2)cc1 (stereo not shown)
2

What about CC(=O)c1ccc(-c2ccc(CC[C@](C)(C(=O)NO)S(C)(=O)=O)cc2)cc1 ?
1

Would you kindly repeat that for Cc1nncn1-c1ccc(OCCOc2ccc(CCC(C)(C(=O)NO)S(C)(=O)=O)cc2)cc1 (stereo not shown) ?
32

What do we get for COc1ccc(-c2ccc(CCC(C)(C(=O)NO)S(C)(=O)=O)cc2)c(C)c1 (racemic) ?
16

Input CC(CCc1ccc(-c2c(F)cccc2F)cc1)(C(=O)NO)S(C)(=O)=O (racemic)
16

Can you check CC(CCc1ccc(-c2cc(F)cc(F)c2)cc1)(C(=O)NO)S(C)(=O)=O (stereo not shown) next?
4

Proceed to COc1cccc(-c2ccc(CCC(C)(C(=O)NO)S(C)(=O)=O)cc2)c1F (racemic)
1

* * *

System: Klebsiella pneumoniae: Ciprofloxacin-resistant isolate, ESBL, clinical isolate (KP-3700)
ASSAY PROTOCOL: MIC determination (CLSI), KP-3700
Type: cell-based
EXPERIMENTAL READOUT: KP-3700 MIC

Previously resolved entries follow.
[[record]]
compound = "C[C@@](CCc1ccc(-c2ccc(F)cc2)cc1)(C(=O)NO)S(C)(=O)=O [Example 110]"
observed = "4 µg/mL"

[[record]]
compound = "CC(C)CCCOc1ccc(CCC(C)(C(=O)NO)S(C)(=O)=O)cc1 (centres unmarked) [Example 267]"
observed = "≧64 mg/L"

[[record]]
compound = "CC(CCc1ccc(-c2ccc3c(c2)OCO3)cc1)(C(=O)NO)S(C)(=O)=O (centres unmarked) [Example 176]"
observed = "2 µg/mL"

[[record]]
compound = "CC(CCc1ccc(-c2cc(C(F)(F)F)c(C#N)cn2)cc1)(C(=O)NO)S(C)(=O)=O (centres unmarked) [Example 124]"
observed = "≧64 mg/L"

[[record]]
compound = "CS(=O)(=O)C(CCc1ccc(-c2ccccc2)cc1)C(=O)NO (centres unmarked) [Example 36]"
observed = "16 µg/mL"

[[record]]
compound = "CC(CCc1ccc(-c2ccccc2)cn1)(C(=O)NO)S(C)(=O)=O (centres unmarked) [Example 4]"
observed = "≧64 mg/L"


For the compound shown here, Cn1ccnc1-c1ccc(-c2ccc(CCC(C)(C(=O)NO)S(C)(=O)=O)cc2)cc1 (centres unmarked) [Example 92] , give the reported KP-3700 MIC.
32 µg/mL

Then what about the compound CC(CCc1ccc(-c2ccc3nonc3c2)cc1)(C(=O)NO)S(C)(=O)=O (centres unmarked) [Example 174] ?
8 µg/mL

Also CC(CCc1ccc(OCCc2ccccc2)cc1)(C(=O)NO)S(C)(=O)=O (centres unmarked) [Example 271] ?
≧64 mg/L

Another: CC(CCc1ccc(-n2cccn2)cc1)(C(=O)NO)S(C)(=O)=O (centres unmarked) [Example 11]
≧64 mg/L

Moving on to the next compound: Cc1ccc(C)c(COc2ccc(CCC(C)(C(=O)NO)S(C)(=O)=O)cc2)c1 (centres unmarked) [Example 254]
≧64 mg/L

Same lookup for CC(CCc1ccc(OCc2ccc(F)cc2C#N)cc1)(C(=O)NO)S(C)(=O)=O (centres unmarked) [Example 284] , please.
≧64 mg/L

Another compound to look at: CC(CCc1ccc(OCc2ccc(F)cc2F)cc1)(C(=O)NO)S(C)(=O)=O (centres unmarked) [Example 294]
16 µg/mL
